Origin of values: the supplement of paper PMC9170038

# System: K4 kissing-loop RNA reporter;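 note: bound reporter read as fluorescence of individual clusters on recovered sequencing chips by microscopy, with normalized cluster intensities fitted with a binding model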
# Test description: apparent KD of K4 kissing-loop reporter; higher = weaker reporter binding
# Condition description: Eterna round: R107; input ligand: tryptophan 2.4 mM
Assay metric: apparent KD of K4 kissing-loop reporter (nM)
Give the value, in units of nM, as a plain number.

Use the examples below as a reference point.
UUGGCAGUGAUGUUGCCAGACAUCACCGAAGGAGCGGGCGAAAGCCCAGGUAGGUCGCGGUAGCGGAGUGAUUCUCCGCGAGGGC [Same State Arginine A GF 23]    829
GCUAUGGUAGGAAGGAGCGCUACCUUGUUUUUACGAGUGAUGUUCGGAAGCAGGGUGUUAAAGCAGGUAGGUCGCCUACUAUAGC [Arginine B K4 21]    176
AAUUUACAUUAAUUAUUUAAAGGUUCAGAAGGAGCGUGAAUUAACACAGGUAGGUCGCUGAGCGAGUGAUGUUCGCUAUAUACUA [JR_ExcArginiA_Sub003]    49.4
UUAGGAGUGGAAGGAUAUCCUGGUGUGGGUGGUGUUAGUGAUGUUGGUGGUGCAGUGAUGUUGCGCGGAGAAGGUCCGGUGUUGA [BDazzled - #4 - Exc. FMN B]    358
AAUGCAUUGUGAAGGAGCGCGUUAAGCAGUGAUGUUGCUUUUAUAUUUUUCAGUUUUAUAUCGCAGGUAGGUCGCACUUUGCAUA [JR_Nu_SSArginiB_Sub029]    148

Moving on to another sequence below.
Ask: GET /values?readout=apparent KD of K4 kissing-loop reporter&item= CAUGUGUCUAUUACGAUGGAUACAUAUACUGAGGAUAUCACAUUUAUGAGAAGGCAGUAAACUGCGAGUGAUGUUCGCAGUACGU [FMN A SS t8]
Result: 248
